Reported residual activity is given for each of the following molecules.
- tested target: Solute carrier organic anion transporter family member 1B1 (Homo sapiens, UniProt Q9Y6L6)
- Sequence (Q9Y6L6 whole entry): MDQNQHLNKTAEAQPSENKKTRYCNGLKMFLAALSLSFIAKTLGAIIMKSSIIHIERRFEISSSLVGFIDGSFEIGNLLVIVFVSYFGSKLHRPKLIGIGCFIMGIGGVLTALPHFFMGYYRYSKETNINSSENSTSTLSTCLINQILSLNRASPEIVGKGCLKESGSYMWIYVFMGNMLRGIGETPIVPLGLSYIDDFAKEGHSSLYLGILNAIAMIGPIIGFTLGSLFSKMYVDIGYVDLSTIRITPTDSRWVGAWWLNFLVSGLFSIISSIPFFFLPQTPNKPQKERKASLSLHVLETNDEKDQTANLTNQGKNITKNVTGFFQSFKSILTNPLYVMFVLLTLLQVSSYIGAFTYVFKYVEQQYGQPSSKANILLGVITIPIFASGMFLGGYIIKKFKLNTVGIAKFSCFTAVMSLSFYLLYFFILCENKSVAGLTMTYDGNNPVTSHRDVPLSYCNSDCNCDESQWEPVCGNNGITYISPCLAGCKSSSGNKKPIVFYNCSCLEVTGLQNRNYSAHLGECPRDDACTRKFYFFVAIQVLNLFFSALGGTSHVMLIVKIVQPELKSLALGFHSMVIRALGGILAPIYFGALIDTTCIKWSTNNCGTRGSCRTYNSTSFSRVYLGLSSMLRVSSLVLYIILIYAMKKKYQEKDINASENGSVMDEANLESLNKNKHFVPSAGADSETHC
- condition label: chinese hamster, cho, 10 µM
Report only the number, with the unit % understood.

Examples with their reported residual activity follow.
{"smiles entry": "C[C@H](C(=O)O)[C@H]1CC[C@H]2[C@@H]3CC=C4C[C@@H](O)CC[C@]4(C)[C@H]3CC[C@]12C", "tested target": "Solute carrier organic anion transporter family member 1B1 (Homo sapiens, UniProt Q9Y6L6)", "residual activity [%]": 71.16}
{"smiles entry": "Nc1nc2ncc(CNc3ccc(C(=O)N[C@@H](CCC(=O)O)C(=O)O)cc3)nc2c(=O)[nH]1", "tested target": "Solute carrier organic anion transporter family member 1B1 (Homo sapiens, UniProt Q9Y6L6)", "residual activity [%]": 98.4}
{"smiles entry": "CCCCCCc1ccc(O)cc1O.Nc1c2ccccc2nc2ccccc12", "tested target": "Solute carrier organic anion transporter family member 1B1 (Homo sapiens, UniProt Q9Y6L6)", "residual activity [%]": 70.31}

### Prompt Report measured residual activity; entry is C[C@]12CC[C@@H]3c4ccc(OCc5ccccc5)cc4CC[C@H]3[C@@H]1C[C@@H](O)[C@@H]2O
### Response 100

----------
- tested target: Solute carrier organic anion transporter family member 1B1 (Homo sapiens, UniProt Q9Y6L6)
- condition label: chinese hamster, cho, 10 µM
measured quantity: residual activity (%)
Report only the number, with the unit % understood.

Examples with their reported residual activity follow.
{"compound": "COC(=O)[C@]1(C)CCC[C@]2(C)c3ccc(C(C)C)cc3C(=O)CC12 (stereo partly specified)", "residual activity [%]": 127.8}
{"compound": "c1coc(CNc2ncnc3[nH]cnc23)c1", "residual activity [%]": 96.48}
{"compound": "CCC1(CC)C(=O)C=CNC1=O", "residual activity [%]": 106.5}

### Prompt Report measured residual activity; entry is CCN(CC)CCCC(C)Nc1c2ccc(Cl)cc2nc2ccc(OC)cc12.Cl.Cl.O.O (stereo unspecified) [QUINACRINE HYDROCHLORIDE]
### Response 83.49

### Prompt Report measured residual activity; entry is CC(C)c1c(O)c(-c2cc3c(c(C(C)C)c2O)CC[C@H]2C(C)(C)CCC[C@]32C)cc2c1CC[C@H]1C(C)(C)CCC[C@]21C
### Response 64.65

### Prompt Report measured residual activity; entry is COc1cc(NS(=O)(=O)c2ccc(N)cc2)ncn1
### Response 109.8

----------
- tested target: Solute carrier organic anion transporter family member 1B3 (Homo sapiens)
- condition label: chinese hamster, cho, 10 µM
measured quantity: residual activity

Examples with their reported residual activity follow.
{"molecule": "Cc1ncc(CNC(=O)N(CCCl)N=O)c(N)n1", "measured quantity": "residual activity", "reported": "112%"}
{"molecule": "CC1(C)C2(Cl)C(Cl)C(Cl)C(Cl)(C(Cl)Cl)C1(Cl)C2Cl (configuration not stated)", "measured quantity": "residual activity", "reported": "105.4%"}
{"molecule": "CCCCCC/C=C\\CCCCCCCc1cccc(O)c1C(=O)O", "measured quantity": "residual activity", "reported": "93.22%"}

### Prompt Report measured residual activity; entry is CC(C)NC[C@@H](O)COc1cccc2ccccc12.Cl [DEXPROPRANOLOL HYDROCHLORIDE]
### Response 103.2%

----------
Reported residual activity is given for each of the following compounds.
- tested target: Solute carrier organic anion transporter family member 1B1 (Homo sapiens)
- condition label: chinese hamster, cho, 10 µM
Report only the number, with the unit % understood.

Examples with their reported residual activity follow.
{"compound": "O=c1cc(-c2ccc(O)cc2)oc2cc(O[C@@H]3O[C@H](CO)[C@@H](O)[C@H](O)[C@H]3O[C@@H]3OC[C@](O)(CO)[C@H]3O)cc(O)c12", "tested target": "Solute carrier organic anion transporter family member 1B1 (Homo sapiens)", "residual activity [%]": 69.17}
{"compound": "CCN(CC)CCOCCOC(=O)C1(c2ccccc2)CCCC1.O=C(O)CC(O)(CC(=O)O)C(=O)O [CARBETAPENTANE CITRATE]", "tested target": "Solute carrier organic anion transporter family member 1B1 (Homo sapiens)", "residual activity [%]": 86.24}
{"compound": "NC[C@H]1O[C@H](O[C@H]2[C@H](O[C@@H]3O[C@H](CO)[C@@H](O)[C@H]3O)[C@@H](O)[C@H](N)C[C@@H]2N)[C@H](N)[C@@H](O)[C@@H]1O.O=S(=O)(O)O", "tested target": "Solute carrier organic anion transporter family member 1B1 (Homo sapiens)", "residual activity [%]": 107.3}
{"compound": "OC[C@@H](O)[C@@H](O[C@@H]1O[C@H](CO)[C@@H](O)[C@H](O)[C@H]1O)[C@H](O)[C@@H](O)CO [GLUCITOL-4-GUCOPYANOSIDE]", "tested target": "Solute carrier organic anion transporter family member 1B1 (Homo sapiens)", "residual activity [%]": 90.99}

### Prompt Report measured residual activity; entry is COC1=CC(=O)C(C(=O)c2ccccc2)=CC1=O
### Response 106.8

### Prompt Report measured residual activity; entry is COc1cc2c(cc1OC)[C@@H]1C(=O)c3ccc4c(c3O[C@@H]1CO2)C=CC(C)(C)O4
### Response 99.89

### Prompt Report measured residual activity; entry is CC(C)=CCc1c(O)cc2occ(-c3ccc4c(c3)OCO4)c(=O)c2c1O
### Response 115.1

### Prompt Report measured residual activity; entry is Cn1c(=O)c2[nH]c(C3CCCC3)nc2n(C)c1=O
### Response 111.5

### Prompt Report measured residual activity; entry is CC(CCc1ccccc1)NCC(O)c1ccc(O)c(C(N)=O)c1.Cl (stereo not given) [LABETALOL HYDROCHLORIDE]
### Response 93.55

### Prompt Report measured residual activity; entry is C[C@@H]1CC[C@@]2(OC1)O[C@H]1C[C@H]3[C@@H]4CC[C@H]5C[C@@H](O)CC[C@]5(C)[C@H]4CC[C@]3(C)[C@H]1[C@@H]2C
### Response 97

### Prompt Report measured residual activity; entry is CO[C@H]1[C@H](O)[C@@H](O)[C@H](O)[C@H](O)[C@H]1O
### Response 101.4

### Prompt Report measured residual activity; entry is CCCCNC(=O)NS(=O)(=O)c1ccc(C)cc1 [TOLBUTAMIDE]
### Response 125.3

### Prompt Report measured residual activity; entry is COc1cc2cc3c4cc(OC)c(OC)cc4cc[n+]3c(C)c2cc1OC.[Cl-]
### Response 106.5

### Prompt Report measured residual activity; entry is Cc1c(O)c(C(=O)CC(C)C)c2oc3c(C(=O)CC(C)C)c(O)c(C)c(O)c3c2c1O
### Response 31.12

### Prompt Report measured residual activity; entry is COc1cc(OC)c2c(OC)c(-c3ccc4c(c3)OCO4)c(=O)oc2c1
### Response 141.7

----------
- tested target: Solute carrier organic anion transporter family member 1B3 (Homo sapiens, UniProt Q9NPD5)
- Sequence (Q9NPD5 whole entry): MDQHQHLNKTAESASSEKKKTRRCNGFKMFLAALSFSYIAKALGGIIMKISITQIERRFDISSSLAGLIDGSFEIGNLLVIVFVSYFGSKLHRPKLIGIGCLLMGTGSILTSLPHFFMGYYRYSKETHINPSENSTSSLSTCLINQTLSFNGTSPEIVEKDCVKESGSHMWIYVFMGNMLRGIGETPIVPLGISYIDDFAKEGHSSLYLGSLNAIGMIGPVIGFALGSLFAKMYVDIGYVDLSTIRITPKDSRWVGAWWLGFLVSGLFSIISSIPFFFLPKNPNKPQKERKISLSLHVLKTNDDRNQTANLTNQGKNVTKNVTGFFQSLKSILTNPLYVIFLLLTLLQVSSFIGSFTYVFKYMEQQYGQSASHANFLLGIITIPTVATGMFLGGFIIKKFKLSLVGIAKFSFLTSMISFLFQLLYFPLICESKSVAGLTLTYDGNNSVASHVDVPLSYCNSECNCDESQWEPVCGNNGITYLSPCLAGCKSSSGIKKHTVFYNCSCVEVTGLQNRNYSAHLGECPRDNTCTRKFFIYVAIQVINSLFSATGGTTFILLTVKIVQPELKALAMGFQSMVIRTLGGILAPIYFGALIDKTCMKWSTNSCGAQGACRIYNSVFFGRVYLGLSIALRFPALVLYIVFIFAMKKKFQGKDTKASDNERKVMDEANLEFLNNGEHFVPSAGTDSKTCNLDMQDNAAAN
- condition label: chinese hamster, cho, 10 µM
measured quantity: residual activity (%)
Report only the number, with the unit % understood.

Examples with their reported residual activity follow.
{"molecule": "Cc1nc(C)c(Cl)c(O)c1Cl [CLOPIDOL]", "residual activity, %": 91.88}
{"molecule": "CCCCOc1ccc(CC(=O)NO)cc1 [BUFEXAMAC]", "residual activity, %": 92.18}
{"molecule": "Cl.c1ccc(CC2=NCCN2)cc1 [TOLAZOLINE HYDROCHLORIDE]", "residual activity, %": 98.49}

Now examine the next entry.
### Prompt Report measured residual activity; entry is CN1C[C@H](C(=O)N[C@]2(C)O[C@@]3(O)[C@@H]4CCCN4C(=O)[C@H](Cc4ccccc4)N3C2=O)C[C@@H]2c3cccc4[nH]cc(c34)C[C@H]21.CS(=O)(=O)O [DIHYDROERGOTAMINE MESYLATE]
### Response 10.07
